system_name: T1, human PD-L1, full-length, on CHO cells (human, UniProt Q9NZQ7 19-290)
T1 construct: also called huPD-L1; CD274
experimental_protocol: flow cytometry, CHO cells stably expressing PD-L1
Mark class 1 only when MFI at 33.3 nM stays strictly below 4000 MFI. Values equal to the cut-off are class 0.

Dear colleague, could you confirm whether MFI at 33.3 nM of variant CD80 IgV-Fc D46V/L85Q (Fc fusion, not shown: small tags and cut ends; a dimerising Fc or GST) VIHVTKEVKEVATLSCGHNVSVEELAQTRIYWQKEKKMVLTMMSGVMNIWPEYKNRTIFDITNNLSIVILALRPSDEGTYECVVQKYEKDAFKREHLAEVTLSVKAD falls below 4000 MFI? Thanks.
class 1

Dear colleague, could you confirm whether MFI at 33.3 nM of variant CD80 IgV-Fc E35D/M47L/L85Q (Fc fusion, not shown: small tags and cut ends; a dimerising Fc or GST) VIHVTKEVKEVATLSCGHNVSVEELAQTRIYWQKDKKMVLTMMSGDLNIWPEYKNRTIFDITNNLSIVILALRPSDEGTYECVVQKYEKDAFKREHLAEVTLSVKAD falls below 4000 MFI? Thanks.
class 0

Dear colleague, could you confirm whether MFI at 33.3 nM of variant CD80 IgV-Fc D46V/V68M/L85Q (Fc fusion, not shown: small tags and cut ends; a dimerising Fc or GST) VIHVTKEVKEVATLSCGHNVSVEELAQTRIYWQKEKKMVLTMMSGVMNIWPEYKNRTIFDITNNLSIMILALRPSDEGTYECVVQKYEKDAFKREHLAEVTLSVKAD falls below 4000 MFI? Thanks.
class 0
